target or system: HLA-A*0201 (Homo sapiens, UniProt P04439, D140Y/D185E/D98H/E176V/E277Q/G131W/G231S/I119V/I121R/I166T/I218V/L300P/L318F/N151K/N90K/P208A/P217A/Q86G/Q94H/R138H/R169H/T345S)
Construct: human tumoral cell T2 which expresses the HLA-A*0201 molecule; endogenous in cells; host or cells: T2 cells (human, TAP1/2 negative)
assay text: Affinity of the peptide to T2 cell line (HLA-A*0201 expression, FACS, relative to HIV pol 589-597)
Type: binding
test settings: T2 cells, peptide 100-0.1 μM, 16 h, 37° C., anti-HLA-A2 FACS
Flag rule - Concentration of peptide that induces 20% of HLA-A2 expression less than 7 µM flags true (1); the remaining entries get false (0).

* ILIPAGIYL [MS4A1-B3] | true (1)
* LLFGAPALL (listed as Homo sapiens) [TNFRSF13C-H1, reference compound] | false (0)
* YVFEHPELL [CD22-B11] | true (1)

// query Is 7 µM strictly greater than the sequence's reported Concentration of peptide that induces 20% of HLA-A2 expression? sequence: AMNSLSLYI [MS4A1-B4]
// result false (0)

// query Here's an entry: LQMGGFYLL [CD19-B7] . Is its Concentration of peptide that induces 20% of HLA-A2 expression below 7 µM?
// result false (0)

// query Report whether reported Concentration of peptide that induces 20% of HLA-A2 expression is lower than 7 µM (strictly) for LMFGAPALV [TNFRSF13C-B1]
// result true (1)

// query Consider YLFLGILSL [MS4A1-B5] . Does its Concentration of peptide that induces 20% of HLA-A2 expression lie strictly below 7 µM?
// result true (1)

// query Decide: Concentration of peptide that induces 20% of HLA-A2 expression of IMNSLSLFA (listed as Homo sapiens) [MS4A1-H4, reference compound] strictly below 7 µM?
// result false (0)

// query Given the entry ILPGLLFGL [TNFRSF13C-B31] , would its reported Concentration of peptide that induces 20% of HLA-A2 expression be below 7 µM?
// result true (1)

// query Hello, I'm reviewing records and need to know if Concentration of peptide that induces 20% of HLA-A2 expression of LMIPAGIYA (listed as Homo sapiens) [MS4A1-H3, reference compound] is below 7 µM. Could you check?
// result true (1)
